test_method_notes: Short-term stability in spiked pooled human plasma (bench-top, 4 °C, 56 °C)
study_conditions: validation standard 2xLLOV
Readings of Short-time stability (24h, 4°C, without daylight) Accuracy [%] for the listed compounds
Give a bare numeral; the unit % is implied.

The following compounds have reported results that may help.
{"compound": "Nc1cccc2c1CN(C1CCC(=O)NC1=O)C2=O (stereo not shown) [Lenalidomide]", "readout_number": 107.4}
{"compound": "CN(C)C/C=C/C(=O)Nc1cc2c(Nc3ccc(F)c(Cl)c3)ncnc2cc1O[C@H]1CCOC1", "readout_number": 85.5}

*Q* Answer with reported Short-time stability (24h, 4°C, without daylight) Accuracy [%] of O=c1[nH]c(=O)n([C@H]2C[C@H](O)[C@@H](CO)O2)cc1C(F)(F)F
*A* 103.5

*Q* Answer with reported Short-time stability (24h, 4°C, without daylight) Accuracy [%] of C[C@H]1Oc2cc(cnc2N)-c2c(nn(C)c2C#N)CN(C)C(=O)c2ccc(F)cc21
*A* 99.8

*Q* Answer with reported Short-time stability (24h, 4°C, without daylight) Accuracy [%] of Cc1ccc(Nc2nccc(N(C)c3ccc4c(C)n(C)nc4c3)n2)cc1S(N)(=O)=O
*A* 101.2

*Q* Answer with reported Short-time stability (24h, 4°C, without daylight) Accuracy [%] of O=C1CCC(N2C(=O)c3ccccc3C2=O)C(=O)N1 (stereo not shown) [Thalidomide]
*A* 64.9

*Q* Answer with reported Short-time stability (24h, 4°C, without daylight) Accuracy [%] of CC(=O)Nc1cccc(-n2c(=O)n(C3CC3)c(=O)c3c(Nc4ccc(I)cc4F)n(C)c(=O)c(C)c32)c1
*A* 101.9

*Q* Answer with reported Short-time stability (24h, 4°C, without daylight) Accuracy [%] of CC(C)(C)c1nc(-c2cccc(NS(=O)(=O)c3c(F)cccc3F)c2F)c(-c2ccnc(N)n2)s1
*A* 99.6

*Q* Answer with reported Short-time stability (24h, 4°C, without daylight) Accuracy [%] of C=CC(=O)Nc1cc(Nc2nccc(-c3cn(C)c4ccccc34)n2)c(OC)cc1N(C)CCN(C)C
*A* 95.8

*Q* Answer with reported Short-time stability (24h, 4°C, without daylight) Accuracy [%] of C#Cc1cccc(Nc2ncnc3cc(OCCOC)c(OCCOC)cc23)c1
*A* 100.7

*Q* Answer with reported Short-time stability (24h, 4°C, without daylight) Accuracy [%] of O=C(c1cc(Cc2n[nH]c(=O)c3ccccc23)ccc1F)N1CCN(C(=O)C2CC2)CC1
*A* 101.8

*Q* Answer with reported Short-time stability (24h, 4°C, without daylight) Accuracy [%] of CNC(=O)c1ccc(N2C(=S)N(c3ccc(C#N)c(C(F)(F)F)c3)C(=O)C2(C)C)cc1F [Enzalutamide]
*A* 103.3

*Q* Answer with reported Short-time stability (24h, 4°C, without daylight) Accuracy [%] of Cc1nc(Nc2ncc(C(=O)Nc3c(C)cccc3Cl)s2)cc(N2CCN(CCO)CC2)n1
*A* 102.2

* * *

test_method_notes: Short-term stability in spiked pooled human plasma (bench-top, 4 °C, 56 °C)
study_conditions: validation standard LLOV
Readings of Short-time stability (1h, 56°C) Accuracy [%] for the listed molecules
Give a bare numeral; the unit % is implied.

The following molecules have reported results that may help.
{"molecule": "CCN(CC)CCNC(=O)c1c(C)[nH]c(/C=C2\\C(=O)Nc3ccc(F)cc32)c1C", "unit_tag": "%", "readout_number": 65.8}
{"molecule": "CCC1=C[C@@H]2CN(C1)Cc1c([nH]c3ccccc13)[C@@](C(=O)OC)(c1cc3c(cc1OC)N(C)[C@H]1[C@@](O)(C(=O)OC)[C@H](OC(C)=O)[C@]4(CC)C=CCN5CC[C@]31[C@@H]54)C2", "unit_tag": "%", "readout_number": 67.0}
{"molecule": "O=C1CN2Cc3c(ccc(Cl)c3Cl)N=C2N1 [Anagrelide]", "unit_tag": "%", "readout_number": 55.6}
{"molecule": "CO[C@@H]1[C@H](N(C)C(=O)c2ccccc2)C[C@H]2O[C@]1(C)n1c3ccccc3c3c4c(c5c6ccccc6n2c5c31)C(=O)NC4", "unit_tag": "%", "readout_number": 39.0}
{"molecule": "Nc1cccc2c1C(=O)N(C1CCC(=O)NC1=O)C2=O (stereo not shown) [Pomalidomide]", "unit_tag": "%", "readout_number": 38.4}

*Q* Answer with reported Short-time stability (1h, 56°C) Accuracy [%] of COc1cc2nccc(Oc3ccc(NC(=O)Nc4cc(C)on4)c(Cl)c3)c2cc1OC
*A* 38.6

*Q* Answer with reported Short-time stability (1h, 56°C) Accuracy [%] of Cc1c(C(=O)Nc2ccc(N3C[C@@H](C)O[C@@H](C)C3)nc2)cccc1-c1ccc(OC(F)(F)F)cc1
*A* 38.1

* * *

test_method_notes: Short-term stability in spiked pooled human plasma (bench-top, 4 °C, 56 °C)
study_conditions: validation standard 2xLLOV
Readings of Short-time stability (24h, 4°C, without daylight) Accuracy [%] for the listed compounds

The following compounds have reported results that may help.
{"compound": "CNC(=O)c1cc(Oc2ccc(NC(=O)Nc3ccc(Cl)c(C(F)(F)F)c3)cc2)ccn1", "result": "97.0%"}
{"compound": "C[C@]12CC[C@H](O)CC1=CC[C@@H]1[C@@H]2CC[C@]2(C)C(c3cccnc3)=CC[C@@H]12", "result": "96.9%"}
{"compound": "COc1cc2nccc(Oc3ccc(NC(=O)C4(C(=O)Nc5ccc(F)cc5)CC4)cc3)c2cc1OC [Cabozantinib]", "result": "101.8%"}
{"compound": "Cc1cc(Nc2ncc(Cl)c(Nc3ccccc3S(=O)(=O)C(C)C)n2)c(OC(C)C)cc1C1CCNCC1", "result": "95.5%"}
{"compound": "O=C(Nc1cnn2ccc(N3CCC[C@@H]3c3cc(F)ccc3F)nc12)N1CC[C@H](O)C1", "result": "104.3%"}

Would you kindly look at the next entry?
*Q* Answer with reported Short-time stability (24h, 4°C, without daylight) Accuracy [%] of Cc1ccc(NC(=O)c2ccc(CN3CCN(C)CC3)cc2)cc1Nc1nccc(-c2cccnc2)n1
*A* 105.2%

* * *

test_method_notes: Short-term stability in spiked pooled human plasma (bench-top, 4 °C, 56 °C)
study_conditions: validation standard MOV
Readings of Short-time stability (1h, 56°C) Accuracy [%] for the listed molecules
Give a bare numeral; the unit % is implied.

The following molecules have reported results that may help.
{"molecule": "CC(=O)Nc1cccc(-n2c(=O)n(C3CC3)c(=O)c3c(Nc4ccc(I)cc4F)n(C)c(=O)c(C)c32)c1", "unit_tag": "%", "readout_number": 52.0}
{"molecule": "CNC(=O)c1cc(Oc2ccc(NC(=O)Nc3ccc(Cl)c(C(F)(F)F)c3)c(F)c2)ccn1", "unit_tag": "%", "readout_number": 39.7}
{"molecule": "CNC(=O)c1ccc(N2C(=S)N(c3ccc(C#N)c(C(F)(F)F)c3)C(=O)C2(C)C)cc1F [Enzalutamide]", "unit_tag": "%", "readout_number": 58.9}

Would you kindly look at the next entry?
*Q* Answer with reported Short-time stability (1h, 56°C) Accuracy [%] of NC(=O)c1cccc2cn(-c3ccc([C@@H]4CCCNC4)cc3)nc12
*A* 51.1

* * *

Readings of Long-term stability, 3 month, -80°C Accuracy [%] for the listed molecules
test_method_notes: Long-term stability in spiked pooled human plasma
study_conditions: validation standard ULOV
Give a bare numeral; the unit % is implied.

The following molecules have reported results that may help.
{"molecule": "COc1cc2ncnc(Nc3ccc(F)c(Cl)c3)c2cc1OCCCN1CCOCC1", "readout_number": 99.2}
{"molecule": "CN(C)C/C=C/C(=O)Nc1cc2c(Nc3ccc(F)c(Cl)c3)ncnc2cc1O[C@H]1CCOC1", "readout_number": 92.1}

*Q* Answer with reported Long-term stability, 3 month, -80°C Accuracy [%] of Cc1[nH]c2ccccc2c1CCNCc1ccc(/C=C/C(=O)NO)cc1
*A* 100.2

*Q* Answer with reported Long-term stability, 3 month, -80°C Accuracy [%] of CC(C)(C)c1nc(-c2cccc(NS(=O)(=O)c3c(F)cccc3F)c2F)c(-c2ccnc(N)n2)s1
*A* 98.6

*Q* Answer with reported Long-term stability, 3 month, -80°C Accuracy [%] of COC(=O)c1ccc2c(c1)NC(=O)/C2=C(\Nc1ccc(N(C)C(=O)CN2CCN(C)CC2)cc1)c1ccccc1
*A* 91.8

*Q* Answer with reported Long-term stability, 3 month, -80°C Accuracy [%] of O=C(Nc1cnn2ccc(N3CCC[C@@H]3c3cc(F)ccc3F)nc12)N1CC[C@H](O)C1
*A* 95.6

* * *

test_method_notes: Autosampler stability of ready for injection samples
Format: physicochemical, human
study_conditions: validation standard 2xLLOV
experimental_endpoint: Autosampler (72h, 4°C) Accuracy [%] (%)
Give a bare numeral; the unit % is implied.

The following compounds have reported results that may help.
{"compound": "NC(=O)c1cccc2cn(-c3ccc([C@@H]4CCCNC4)cc3)nc12", "readout_number": 99.6}
{"compound": "O=C1CCC(N2C(=O)c3ccccc3C2=O)C(=O)N1 (stereo not shown) [Thalidomide]", "readout_number": 101.6}
{"compound": "CCC1=C[C@@H]2CN(C1)Cc1c([nH]c3ccccc13)[C@@](C(=O)OC)(c1cc3c(cc1OC)N(C)[C@H]1[C@@](O)(C(=O)OC)[C@H](OC(C)=O)[C@]4(CC)C=CCN5CC[C@]31[C@@H]54)C2", "readout_number": 87.3}

Would you kindly look at the next entry?
*Q* Answer with reported Autosampler (72h, 4°C) Accuracy [%] of Cc1[nH]c2ccccc2c1CCNCc1ccc(/C=C/C(=O)NO)cc1
*A* 95.4
